Target: UniProt:Q9NWZ3
pIC50: −log10 of the molar value. Where a name gives a salt, the structure may show the parent alone.
# binarize pIC50: threshold 8 inclusive, high side YES, low side NO

MOLECULE: Cn1cc(NC(=O)c2csc3ncc(N4C5CCC4CNC5)nc23)c(C(F)(F)F)n1 [Example 45, trifluoroacetate]
TARGET_ENTITY: UniProt:Q9NWZ3
DISCRETE_LABEL: YES
--
MOLECULE: O=C(Nc1ccsc1C(F)(F)F)c1csc2ncc(N3C[C@H]4CC[C@@H]3CN4)nc12 (single isomer, unassigned)
TARGET_ENTITY: UniProt:Q9NWZ3
DISCRETE_LABEL: NO
--
MOLECULE: O=C(Nc1cscc1Br)c1csc2ncc(N3C[C@H]4CC[C@@H]3CN4)nc12 (single isomer, unassigned) [Example 49, trifluoroacetate]
TARGET_ENTITY: UniProt:Q9NWZ3
DISCRETE_LABEL: NO
--
MOLECULE: N#Cc1ccccc1NC(=O)c1csc2ncc(N[C@@H]3CCCC[C@@H]3N)nc12 [Example 95, trifluoroacetate]
TARGET_ENTITY: UniProt:Q9NWZ3
DISCRETE_LABEL: YES
--
MOLECULE: Cn1cc(NC(=O)c2csc3ncc(N4C[C@H]5CC[C@@H]4CN5)nc23)c(Br)n1 (single isomer, unassigned) [Example 20, trifluoroacetate]
TARGET_ENTITY: UniProt:Q9NWZ3
DISCRETE_LABEL: NO

Continue with the molecule presented below.
Inquiry: Is pIC50 at least 8? Consider N#Cc1sccc1NC(=O)c1csc2ncc(N3C[C@H]4CC[C@@H]3CN4)nc12 (single isomer, unassigned) [Example 70, trifluoroacetate]
Reply text: NO

----------
Structures can show the parent of a compound that is named as a salt.
Quick record: IC50, GST tagged IRAK4 (Homo sapiens (Human), UniProt Q9NWZ3).
Write down the numeric answer in nM and omit the unit.

See these solved cases before continuing.
COMPOUND: Cn1cc(NC(=O)c2csc3ncc(N4CC5CCC(C4)N5)nc23)c(C(F)F)n1 [Example 40, trifluoroacetate]
OBSERVED_RESULT: 0.6
//
COMPOUND: O=C(Nc1cscc1C(F)F)c1csc2ncc(N3CCCNCC3)nc12
OBSERVED_RESULT: 38
//
COMPOUND: Cn1cc(NC(=O)c2csc3ncc(N4CCNCC5(CC5)C4)nc23)c(C(F)(F)F)n1
OBSERVED_RESULT: 18
//
COMPOUND: Cn1cc(NC(=O)c2csc3ncc(N4CC5CCC(C4)N5)nc23)c(C(F)(F)F)n1 [Example 41, trifluoroacetate]
OBSERVED_RESULT: 18
//
COMPOUND: Cn1cc(NC(=O)c2csc3ncc(N4CCC[C@@H](N)C4)nc23)c(C(F)F)n1
OBSERVED_RESULT: 0.2
//
COMPOUND: N#Cc1ccccc1NC(=O)c1csc2ncc(N[C@H]3CCCCNC3)nc12 (single isomer, unassigned) [Example 93, trifluoroacetate]
OBSERVED_RESULT: 4
//
COMPOUND: O=C(Nc1ccsc1Br)c1csc2ncc(N3C[C@@H]4CC[C@H]3CN4)nc12 (single isomer, unassigned)
OBSERVED_RESULT: 324
//
COMPOUND: Cn1cc(NC(=O)c2csc3ncc(N4C[C@@H]5CC[C@H]4CN5)nc23)c(Br)n1 (single isomer, unassigned) [Example 19, trifluoroacetate]
OBSERVED_RESULT: 70

Let's switch to this compound now.
Inquiry: Input Cn1cc(NC(=O)c2csc3ncc(N[C@@H]4CCCC[C@@H]4N)nc23)c(C#N)n1 [Example 37, trifluoroacetate] , output reported IC50.
Reply text: 0.4
